PROTOCOL: NCI Yeast Anticancer Drug Screen. Data for the bub3 strain (AID 167)
RUN_PARAMETERS: S. cerevisiae bub3 mutant strain, at 50.0 µM
Compounds without any hit were thinned out: in the full panel of roughly 79,000, 15% have a hit. Activity calls are given as the source filed them. Cut-off read from the data, not from the text of the source: active = growth inhibition above about 70%; inactive = the rest.
Classes used: active, inactive

{"MOLECULE": "NC(=O)c1ccccc1NC(=O)C(=O)Cc1nc2ccccc2[nH]c1=O", "CATEGORY_LABEL": "inactive"}
{"MOLECULE": "Cc1cc(Cl)ccc1NC(=O)Nc1c(Oc2ccc(Cl)cc2)ccc(Cl)c1S(=O)(=O)O", "CATEGORY_LABEL": "inactive"}
{"MOLECULE": "COc1ccc(C(=O)CCc2cccc(NC(=O)CCCl)c2)cc1", "CATEGORY_LABEL": "inactive"}
{"MOLECULE": "C/C(=N/NC(N)=O)c1ccc(C)o1", "CATEGORY_LABEL": "inactive"}
{"MOLECULE": "NNC(=O)c1c(-c2cccnc2)cnc2ccccc12", "CATEGORY_LABEL": "inactive"}
{"MOLECULE": "CC12CCC(=O)C=C1CCC1C2CCC2(C)C1CCC2(O)C(=O)Cn1c(=O)cc[nH]c1=O (stereo not drawn)", "CATEGORY_LABEL": "inactive"}
{"MOLECULE": "CCOC(=O)C1=NN(c2ccccc2)C(=O)/C1=C\\N1C(=O)/C(=C/c2cccc(OC)c2O)SC1=S", "CATEGORY_LABEL": "inactive"}
{"MOLECULE": "CC(=O)NS(=O)(=O)c1ccc(N=C=S)cc1", "CATEGORY_LABEL": "inactive"}
{"MOLECULE": "O=[N+]([O-])c1cccc2c1ccc1nonc12", "CATEGORY_LABEL": "inactive"}
{"MOLECULE": "C1=NC(c2ccccc2)=CN(C2CCCCC2)C1(c1ccccc1)C1CCCCC1 (stereo not drawn)", "CATEGORY_LABEL": "active"}
{"MOLECULE": "COC(SC)(C(=O)O)c1cc(-c2c(Cl)cccc2Cl)no1 (stereo not drawn)", "CATEGORY_LABEL": "inactive"}
{"MOLECULE": "N=c1sc2ccccc2n1CC(=O)O", "CATEGORY_LABEL": "inactive"}
{"MOLECULE": "CCOP(=O)(O)C(c1ccccc1)c1ccccc1", "CATEGORY_LABEL": "inactive"}
{"MOLECULE": "CCOC(=O)[n+]1c(C)ccc2ccccc21", "CATEGORY_LABEL": "inactive"}
{"MOLECULE": "CCOc1cc(/C=N/NC(=O)N(c2ccccc2)c2ccccc2)ccc1O", "CATEGORY_LABEL": "inactive"}
{"MOLECULE": "COc1ccccc1NC(=O)C1=C(C)NC(C)=C(C(=O)Nc2ccccc2OC)C1c1cccc2ccccc12", "CATEGORY_LABEL": "inactive"}
{"MOLECULE": "C1CSCC2(COC2)CS1", "CATEGORY_LABEL": "inactive"}
{"MOLECULE": "N#C/C(=C/c1ccc(Cl)cc1)C(=O)O", "CATEGORY_LABEL": "inactive"}
{"MOLECULE": "O=C1NC2(CCCC2)C(=O)N2CCCC12 (stereo not drawn)", "CATEGORY_LABEL": "inactive"}
{"MOLECULE": "CC(C)(C)c1ccc(N)cc1", "CATEGORY_LABEL": "inactive"}
{"MOLECULE": "CC1=CC(NCCC(=O)O)NC(=O)N1 (stereo not drawn)", "CATEGORY_LABEL": "inactive"}
{"MOLECULE": "O=C(O)c1ccc2c3ccc(C(=O)O)c4c(C(=O)O)ccc(c5ccc(C(=O)O)c1c25)c43", "CATEGORY_LABEL": "inactive"}
{"MOLECULE": "CC(C)(C)OC(=O)C1C(=O)CC(c2ccccc2)C1c1ccccc1 (stereo not drawn)", "CATEGORY_LABEL": "inactive"}
{"MOLECULE": "CCn1c(C)nc([N+](=O)[O-])c1Sc1ncc[nH]1", "CATEGORY_LABEL": "inactive"}
{"MOLECULE": "COc1cccc(/C(Cl)=C(\\C=O)c2cccc(OC)c2)c1", "CATEGORY_LABEL": "inactive"}
{"MOLECULE": "O=C1CC2C3CC4(OCCO4)C4C3CC2C14 (stereo not drawn)", "CATEGORY_LABEL": "inactive"}
{"MOLECULE": "O=C(O)c1cc2ccc(Cl)cc2c2cc(C(F)(F)F)ccc12", "CATEGORY_LABEL": "inactive"}
{"MOLECULE": "O=C(c1ccccc1)C1(Br)CCCCC1", "CATEGORY_LABEL": "inactive"}
